target: HLA-A2.01 molecule at the surface of T2 cells; experiment: T2 cell HLA-A2.01 stabilization; concentration ratio against the reference peptide for 20% of maximal stabilized molecules
Non-standard residues stand in square brackets, D forms with d. No end group written: not given here. Abu = CC[C@H](N)C(=O)O
Each record here notes measured RA.
QUANTITY: RA

BINDER | REPORTED MEASUREMENT
RIAE[Abu]ILGM [R9M-5α-but] | 2
RIAECILGM (modifications not checked) [wildtype R9M peptide] | 2.9
YIAEAILGM (modifications not checked) [Y9M-5A] | 0.9
YIAESILGM (modifications not checked) [Y9M-5S] | 1.4
RIAEAILGM (modifications not checked) [R9M-5A] | 3.2
YIAE[Abu]ILGM [Y9M-5α-but] | 0.7
